meta.source: PubChem BioAssay

Tested on: Neuregulin-1 EGF-like domain
Assay: binders of neuregulin-1 EGF-like domain, primary screen, biochemical, small-molecule microarray, 635 nm fluorescence (AID 1081);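 also: binding of the protein to compounds printed on small-molecule microarray slides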
Conditions: small-molecule microarray binding, higher = more signal
Assign 1 whenever composite z-score does not fall below 1; assign -1 whenever it does.

Observe how each entry below is paired with its result.
INSERT INTO assay_data (molecule, answer_label) VALUES
  ('COCCCNC(=O)[C@@]1(c2ccc([N+](=O)[O-])cc2)CC(=O)N(CC23CC4CC(CC(C4)C2)C3)[C@@H]1c1ccc(CO)cc1', 1),
  ('CC(C)=CCCC(C)=CC(O)C1C=CC2C(=O)N(c3ccccc3)C(=O)C2N1Nc1ccccc1 (stereo not given)', 1),
  ('O=C1O[C@@H](c2ccccc2)[C@@H](c2ccccc2)N2[C@@H](c3ccc(O)cc3)[C@]3(C(=O)Nc4ccc(C#CC5=CCCCC5)cc43)[C@@H](C(=O)O)[C@H]12', 1);

Query string: Decide: is the reported value of composite z-score for O=C1OCC=C[C@H]2OC34C=CCN(c5ccc6ccccc6c5)C(=O)[C@H]3N(CCCO)C(=O)[C@@H]4[C@@H]12 (stereo not given in full) equal to or greater than 1?
Result string: 1

Query string: API: above_or_equal(metric=composite z-score, cutoff=1) for item COc1ccc(NN2C(C(O)c3ccc(OC)c(OCc4ccccc4)c3)C=CC3C(=O)N(C4CCCCC4)C(=O)C32)cc1 (stereo not given)
Result string: -1

Query string: Check this molecule for composite z-score at or above 1: COC(=O)[C@@]1(Cc2ccc(OC)cc2)[C@H]2c3cc(C(=O)N(C)C)n(Cc4c(OC)[nH]cc(C)c4=O)c3C[C@H]2CN1C(=O)c1ccccc1
Result string: 1

Query string: Determine whether measured composite z-score meets or exceeds 1 for CC(C)N1C(=O)c2ccccc2[C@@H](C(=O)NCCCN(C)C)[C@@H]1c1ccc(CO)cc1
Result string: 1

Query string: Is composite z-score for C=CCNC(=O)[C@@H]1[C@H]2C(=O)O[C@H](c3ccccc3)[C@H](c3ccccc3)N2[C@H](c2ccc(OCCO)cc2)[C@@]12C(=O)Nc1ccccc12 at or above 1?
Result string: 1

Query string: Decide: is the reported value of composite z-score for CCOC(=O)C1=CCC(C(C)(C)C)N(S(=O)(=O)c2ccc(C)cc2)C1 (stereo not given) equal to or greater than 1?
Result string: 1

Query string: Reported composite z-score reaches at least 1 for C[C@]1(C(=O)NCc2ccccc2)c2ccccc2C(=O)N(Cc2cc(F)cc(C(F)(F)F)c2)[C@H]1c1ccc(CO)cc1 ?
Result string: 1

Query string: Would you say O=C1C2C=CC(C(O)c3ccc(B(O)O)cc3)N(Nc3ccccc3)C2C(=O)N1c1ccccc1 (stereo not given) shows composite z-score at minimum 1?
Result string: -1

----------
Assay: S. cerevisiae growth modulation with rapamycin, primary screen, strain BY4716, OD600, 96 h (AID 1091); also: test concentration not given here
Conditions: higher = more signal, called active from +8 up or from −8 down
Would you mind labelling by z-score? At or over 0.6 is 1 (yes), under is 0 (no).

INSERT INTO results (molecule, answer_label) VALUES
  ('COCCOC(=O)N1C(=O)[C@@]2(c3cc(C#CC4=CCCCC4)ccc31)[C@H](C(=O)NC[C@H](O)c1ccccc1)[C@H]1C(=O)O[C@H](c3ccccc3)[C@H](c3ccccc3)N1[C@@H]2c1ccc(O)cc1', '1 (yes)'),
  ('COC(=O)[C@@]1(Cc2ccc(F)cc2)[C@H]2c3cc(C(=O)N4CCCC4)n(Cc4cccc5ccccc45)c3C[C@H]2CN1C(=O)c1ccccc1', '0 (no)'),
  ('CC(c1ccccc1)C(O)C1C=CC2C(=O)NC(=O)C2N1Nc1ccccn1 (stereo not drawn)', '1 (yes)'),
  ('CC(C)CNC(=O)[C@@H]1c2ccccc2C(=O)N(Cc2cc(C(F)(F)F)cc(C(F)(F)F)c2)[C@H]1c1ccc(CO)cc1', '0 (no)'),
  ('COCCOC(=O)N1C(=O)[C@@]2(c3cc(C#CCCO)ccc31)[C@H](C(=O)NC[C@H](O)c1ccccc1)[C@H]1C(=O)O[C@H](c3ccccc3)[C@H](c3ccccc3)N1[C@@H]2c1ccc(O)cc1', '1 (yes)'),
  ('COc1ccc(C#Cc2ccc3c(c2)[C@]2(C(=O)N3)[C@H](c3ccc(O)cc3)N3[C@H](c4ccccc4)[C@H](c4ccccc4)OC(=O)[C@H]3[C@@H]2C(=O)N2CCCCCCC2)cc1', '1 (yes)'),
  ('COc1c(C)cc(-c2cc3c(c(-c4ccc(Oc5ccccc5)cc4)n2)[Si](C(C)C)(C(C)C)OC3)cc1C', '1 (yes)'),
  ('O=C1O[C@@H](c2ccccc2)[C@@H](c2ccccc2)N2[C@@H](c3ccc(O)cc3)[C@]3(C(=O)Nc4ccc(C#CC5=CCCCC5)cc43)[C@@H](C(=O)O)[C@H]12', '0 (no)');

Query string: Is reported z-score greater than or equal to 0.6 here: C[C@]1(C(=O)NCc2ccccc2)c2ccccc2C(=O)N(Cc2cc(F)cc(C(F)(F)F)c2)[C@H]1c1ccc(CO)cc1
Result string: 0 (no)

Query string: Test whether the molecule C=CCNC(=O)[C@@H]1[C@H]2C(=O)O[C@H](c3ccccc3)[C@H](c3ccccc3)N2[C@H](c2ccc(OCCO)cc2)[C@@]12C(=O)Nc1ccccc12 records z-score of 0.6 or higher.
Result string: 1 (yes)

Query string: Quick check, z-score >= 0.6? COc1ccc(C#Cc2ccc3c(c2)[C@]2(C(=O)N3)[C@H](C(=O)NC[C@H](O)c3ccccc3)[C@H]3C(=O)O[C@H](c4ccccc4)[C@H](c4ccccc4)N3[C@@H]2c2ccc(OCCO)cc2)cc1
Result string: 1 (yes)

Query string: Quick check, z-score >= 0.6? C=CC[C@@]1(C(=O)N2CCOCC2)N=C(c2ccc(OCCCO)cc2)O[C@@H]1c1ccccc1N=[N+]=[N-]
Result string: 1 (yes)

----------
Molecular target: Torsin-1A (Homo sapiens)
Assay: torsin A binders from cell lysate, primary screen, small-molecule microarray, wild-type, 635/667 nm (AID 1149)
Details: COS7 hTOR1A-WT lysate, 635 nm fluorescence, higher = more signal
METRIC: composite z-score

Known results for molecules:
INSERT INTO assay_data (molecule, study_target, reported_measurement) VALUES
  ('COCCOC(=O)N1C(=O)[C@@]2(c3cc(C#CCC(C(=O)OC)C(=O)OC)ccc31)[C@H](C(=O)N1CCN(c3ncccn3)CC1)[C@H]1C(=O)O[C@H](c3ccccc3)[C@H](c3ccccc3)N1[C@@H]2c1ccc(OCCO)cc1', 'Torsin-1A (Homo sapiens)', 0.2),
  ('NC(=O)NCC#Cc1ccc2c(c1)[C@]1(C(=O)N2)[C@H](C(=O)NC[C@H](O)c2ccccc2)[C@H]2C(=O)O[C@H](c3ccccc3)[C@H](c3ccccc3)N2[C@@H]1c1ccc(O)cc1', 'Torsin-1A (Homo sapiens)', 0.325),
  ('COc1ccc(C(O)C2C=CC3C(=O)N(C)C(=O)C3N2Nc2ccccc2)cc1OCc1ccccc1 (stereo unspecified)', 'Torsin-1A (Homo sapiens)', 0.155),
  ('CCCCC=C[C@@H](NC(=O)c1cccs1)c1ccccc1', 'Torsin-1A (Homo sapiens)', 0.0798),
  ('COCCOC(=O)N1C(=O)[C@@]2(c3cc(C#CCNC(N)=O)ccc31)[C@H](c1ccc(O)cc1)N1[C@H](c3ccccc3)[C@H](c3ccccc3)OC(=O)[C@H]1[C@@H]2C(=O)Nc1nc2ccccc2s1', 'Torsin-1A (Homo sapiens)', 0.518);

Shifting focus to the molecule that follows.
Query string: GET composite z-score where system = Torsin-1A (Homo sapiens) and item = CC(C)CNC(=O)[C@@]1(c2ccc([N+](=O)[O-])cc2)CC(=O)N(CC23CC4CC(CC(C4)C2)C3)[C@@H]1c1ccc(CO)cc1I
Result string: 0.283

----------
Assay: E. coli growth modulation, two-sided OD650, primary screen, E. coli filamentation project, strain DRC41, 24 h (AID 1093);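 also: MC1000 strain lacking acrAB efflux and sulA so SOS filamentation is blocked; test concentration not given here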
Settings: OD650, 24 h, higher = more signal, called active from +8 up or from −8 down
Label class 1 when z-score is at or above 0.3; otherwise label class 0.

Study these solved cases before continuing.
INSERT INTO assay_data (compound, answer_label) VALUES
  ('CCOC(=O)C[C@H]1[C@H](OC(=O)c2ccccc2-c2ccccc2)[C@@H](NC(=O)Cc2ccc(OC)cc2)c2cc(OCCCO)ccc2N1C(=O)c1ccccc1', 'class 0'),
  ('Cc1ccc(S[C@]2(C(=O)NCc3ccccc3)CC(=O)N(Cc3ccccc3)[C@@H]2c2ccc(CO)cc2)cc1', 'class 0'),
  ('CC(=O)NCCCC[C@@H]1NC(=O)[C@H]2C[C@@H](C(=O)NCCCCCC[N+](C)(C)C)[C@@H](c3cccc(OCCO)c3)N2C1=O', 'class 1'),
  ('CO[C@H]1O[C@H](CO)[C@@H](OC(=O)Nc2ccc3c(c2)OCO3)[C@H](OC(=O)Nc2ccccc2)[C@H]1OC(=O)Nc1ccccc1', 'class 0'),
  ('CO[C@H]1O[C@H](CO)[C@@H](OC(=O)Nc2ccc(Oc3ccccc3)cc2)[C@H](OC(=O)Nc2ccccc2)[C@H]1OC(=O)Nc1ccccc1', 'class 1'),
  ('O=C/C=C/c1ccc(Cl)cc1', 'class 0'),
  ('COCC1=C2[C@@H](CCc3ccccc3)OB(O)C[C@@H]2[C@@H]2C(=O)N(Cc3ccccc3)C(=O)[C@@H]2C1', 'class 0'),
  ('COCCOC(=O)N1C(=O)[C@@]2(c3cc(C#CCC(C(=O)OC)C(=O)OC)ccc31)[C@H](c1ccc(O)cc1)N1[C@H](c3ccccc3)[C@H](c3ccccc3)OC(=O)[C@H]1[C@@H]2C(N)=O', 'class 0');

Query string: Does the reported z-score for COCCOC(=O)N1C(=O)[C@@]2(c3cc(C#CC4=CCCCC4)ccc31)[C@H](C(=O)N1CCc3cc(OC)c(OC)cc3C1)[C@H]1C(=O)O[C@H](c3ccccc3)[C@H](c3ccccc3)N1[C@@H]2c1ccccc1OCCO fall at or above the 0.3 mark?
Result string: class 1

Query string: Hi, just wondering whether Cc1ccc(S[C@]2(C(=O)NCCN3CCOCC3)CC(=O)N(Cc3cc(C(F)(F)F)cc(C(F)(F)F)c3)[C@@H]2c2ccc(CO)cc2I)cc1 shows z-score of 0.3 or higher.
Result string: class 0

Query string: Could you tell me if the measured z-score of O=C1OCC=C[C@H]2OC34C=CCN(c5ccc(Cl)cc5)C(=O)[C@H]3N(CCCCCCO)C(=O)[C@@H]4[C@@H]12 (some centres undefined) reaches 0.3 or more?
Result string: class 1

Query string: For this compound, is measured z-score 0.3 or higher? CC(C)C[C@@H]1NC(=O)[C@@H]2C[C@H](C(=O)NCCCCCC[N+](C)(C)C)[C@H](c3ccc(O)cc3)N2C1=O
Result string: class 0

Query string: Quick check, z-score >= 0.3? COC(=O)[C@@]1(Cc2ccccc2)[C@H]2c3cc(C(=O)N4CCCC4)n(C)c3C[C@H]2CN1C(=O)c1ccccc1
Result string: class 1

Query string: Given C=C[C@@H](COC(C)=O)N(Cc1ccccc1[N+](=O)[O-])S(=O)(=O)c1ccc(Br)cc1 , state whether its z-score is at least 0.3.
Result string: class 1
